- System: SK-MEL-2 melanoma
- assay-info: NCI-60 one-dose screen, 48 h (100 = growth as untreated, 0 = no growth, -100 = all killed)
- experimental-setup: 10 µM unless noted
Compounds without any hit were thinned out: in the full panel of roughly 83,000, 20% have a hit.

{"compound": "COc1cc(/C=N/NC(=O)c2ccc(C(F)(F)F)nc2Nc2cc(Cl)ccc2C)cc(OC)c1OC", "growth [%]": 88.8}
{"compound": "c1ccc2nc(N/N=C3\\CCCCC3C3CCCCC3)ccc2c1 (stereo not drawn)", "growth [%]": 34.6}
{"compound": "Oc1c(Cl)cc(Cl)c(Cl)c1Cc1c(O)c(Cl)cc(Cl)c1Cl", "growth [%]": -39.1}

---

# growth values compiled below
- Tested on: EKVX NSCLC
- assay-info: NCI-60 one-dose screen, 48 h (100 = growth as untreated, 0 = no growth, -100 = all killed)
- experimental-setup: 10 µM unless noted
Compounds without any hit were thinned out: in the full panel of roughly 83,000, 20% have a hit. The source made the active and inactive calls. How the source made its calls: active means growth percent below 10; inactive means the rest.

{"test-smiles": "COc1cc(/C=C/C(=O)CC(=O)/C=C/c2ccc(OC(=O)CCNC34CC5CC(CC(C5)C3)C4)c(OC)c2)ccc1OC(=O)CCNC12CC3CC(CC(C3)C1)C2", "growth": "21.6% (inactive)"}
{"test-smiles": "N#Cc1c(-c2ccccc2)cc(-c2ccccc2)n(CC(=O)O)c1=O", "growth": "81.4% (inactive)"}
{"test-smiles": "COC(=O)c1cc2c(/C=C3/NC(=S)NC3=O)coc2n1C", "growth": "93.4% (inactive)"}
{"test-smiles": "CCOC(=O)c1sc(NC(=O)COc2cccc(/C=C3\\Cc4ccc(Cl)cc4C3=O)c2)nc1C", "growth": "107% (inactive)"}
{"test-smiles": "C[C@@H]1[C@H]2[C@H](C=C3[C@@H]4CC[C@H]5Cc6nc7c(nc6C[C@]5(C)[C@H]4C[C@@H](O)[C@@]32C)C[C@@H]2CC[C@H]3C4=C[C@@H]5O[C@@]6(CC[C@](C)(CO)O6)[C@@H](C)[C@@]5(O)[C@@]4(C)[C@H](O)C[C@@H]3[C@@]2(C)C7)O[C@]12CCC(C)(C)O2", "growth": "21.8% (inactive)"}
{"test-smiles": "COC(=O)CC1=C(c2ccc([N+](=O)[O-])cc2)CCC1=O", "growth": "94.5% (inactive)"}
{"test-smiles": "Fc1ccc(-c2nn3c(-c4cc(C(F)(F)F)cc(C(F)(F)F)c4)nnc3s2)cc1", "growth": "71.1% (inactive)"}
{"test-smiles": "O=C(Nc1nc2c(C(F)(F)F)cccc2s1)c1cc(Cl)ccc1O", "growth": "11.1% (inactive)"}

---

# growth values compiled below
- System: OVCAR-5 ovarian
- assay-info: NCI-60 one-dose screen, 48 h (100 = growth as untreated, 0 = no growth, -100 = all killed)
- experimental-setup: 10 µM unless noted
About 83,000 compounds went through this panel and 20% of them were active in at least one assay; those are over-represented in the sample as a whole.

{"compound": "O=C1/C(=C\\c2coc3ccccc3c2=O)c2ccccc2N1c1c(Cl)cccc1Cl", "growth / %": 102}
{"compound": "Nc1nc(NC2CC2)c2ncn(C3C=CC(CO)C3)c2n1 (stereo not given)", "growth / %": 103}
{"compound": "Cc1cc(C(=O)Nc2ccc3cc(CN4CCOCC4)ccc3n2)c(C)n1-c1ccccc1", "growth / %": 83.1}
{"compound": "NS(=O)(=O)c1cc2c(cc1Cl)NC=NS2(=O)=O", "growth / %": 100}
{"compound": "Fc1ccccc1C1c2ccccc2-c2nccn21 (stereo not given)", "growth / %": 96.3}

---

- Test system: SNB-75 CNS
- assay-info: NCI-60 one-dose screen, 48 h (100 = growth as untreated, 0 = no growth, -100 = all killed)
- experimental-setup: 10 µM unless noted
Compounds without any hit were thinned out: in the full panel of roughly 83,000, 20% have a hit. Active and inactive are the calls of the source. The calls were made as follows: active = growth percent below 10; inactive = the rest.
# growth values compiled below
measured-quantity: growth

{"molecule": "COCCCNS(=O)(=O)c1ncnc2nc[nH]c12", "subject-of-test": "SNB-75 CNS", "measured-quantity": "growth", "endpoint-result": "116% (inactive)"}
{"molecule": "O=c1c2ccccc2c2nccn2c2cc(Cl)ccc12", "subject-of-test": "SNB-75 CNS", "measured-quantity": "growth", "endpoint-result": "73.3% (inactive)"}
{"molecule": "CCCCCCCCCCOC(C)=O", "subject-of-test": "SNB-75 CNS", "measured-quantity": "growth", "endpoint-result": "80.7% (inactive)"}
{"molecule": "CSc1nc(N)c2c(n1)N(C)C=NS2(=O)=O", "subject-of-test": "SNB-75 CNS", "measured-quantity": "growth", "endpoint-result": "93.3% (inactive)"}
{"molecule": "O=C(COc1cccc(/C=C2\\Oc3ccc4ccccc4c3C2=O)c1)c1ccc([N+](=O)[O-])cc1", "subject-of-test": "SNB-75 CNS", "measured-quantity": "growth", "endpoint-result": "81.4% (inactive)"}
{"molecule": "Nc1ccccc1C#Cc1ccccc1C#Cc1ccc(OCCCCCCOc2ccc(C#Cc3ccccc3C#Cc3ccccc3N)cc2)cc1", "subject-of-test": "SNB-75 CNS", "measured-quantity": "growth", "endpoint-result": "105% (inactive)"}
{"molecule": "CCOC(=O)C(C(=O)OCC)C1CCCCC1", "subject-of-test": "SNB-75 CNS", "measured-quantity": "growth", "endpoint-result": "87.6% (inactive)"}
{"molecule": "[N-]=[N+]=NCc1ncc(-c2ccc(C(F)(F)F)cc2)c(NC2CCCCCC2)n1", "subject-of-test": "SNB-75 CNS", "measured-quantity": "growth", "endpoint-result": "65.8% [50 µM] (inactive)"}
{"molecule": "COc1cnc2c(c1)C(=O)c1c-2n(CCCNC2=NCCS2)c(=O)c2cc(F)ccc12", "subject-of-test": "SNB-75 CNS", "measured-quantity": "growth", "endpoint-result": "33.1% (inactive)"}
{"molecule": "Cc1cc(=O)oc2cc(OCCn3c(C)nn(-c4ccc(Cl)cc4)c3=O)ccc12", "subject-of-test": "SNB-75 CNS", "measured-quantity": "growth", "endpoint-result": "20.4% (inactive)"}
{"molecule": "CC[C@@H](c1ccc(O)c(O)c1)[C@@H](CC)c1ccc(O)c(O)c1", "subject-of-test": "SNB-75 CNS", "measured-quantity": "growth", "endpoint-result": "82.4% (inactive)"}
{"molecule": "C#C[C@]1(O)CCC2C3CCc4cc(O)ccc4C3CC[C@@]21C (some centres not stated)", "subject-of-test": "SNB-75 CNS", "measured-quantity": "growth", "endpoint-result": "38.8% (inactive)"}

---

- Tested on: MDA-MB-231 breast
- assay-info: NCI-60 one-dose screen, 48 h
- experimental-setup: 10 µM unless noted
This is part of a sample that, as a whole, favours compounds with a hit. Of some 83,000 tested, about 20% had one in any assay. Active and inactive are the calls of the source. The calls were made as follows: active = growth percent below 10; inactive = the rest.
Possible outcomes: active, inactive

{"compound": "COc1ccc(OC)c(CCn2cncc2-c2c[nH]c3cc(Br)ccc23)c1", "subject-of-test": "MDA-MB-231 breast", "category": "inactive"}
{"compound": "COc1cc(-c2n[nH]nc2-c2ccccn2)cc(OC)c1OC", "subject-of-test": "MDA-MB-231 breast", "category": "inactive"}
{"compound": "CN(C)c1ncnc2c1ncn2C1CCCCO1 (stereo not given)", "subject-of-test": "MDA-MB-231 breast", "category": "inactive"}
{"compound": "COCCOCCOCCOCCOc1ccc2c(c1)C(=O)c1nc3ncccc3c(=O)n1-2", "subject-of-test": "MDA-MB-231 breast", "category": "inactive"}
{"compound": "CC(NNC(=S)N1CCCCCC1)c1ccc2ccccc2n1 (stereo not given)", "subject-of-test": "MDA-MB-231 breast", "category": "inactive"}
{"compound": "Fc1ccc(-c2nn3c(-c4cc(C(F)(F)F)cc(C(F)(F)F)c4)nnc3s2)cc1", "subject-of-test": "MDA-MB-231 breast", "category": "inactive"}
{"compound": "C1=C(Cc2ccccc2)n2cnc3ncnc(c32)S1", "subject-of-test": "MDA-MB-231 breast", "category": "inactive"}
{"compound": "COc1cc(/C=C\\C(C)=N\\Nc2ccccc2)ccc1O", "subject-of-test": "MDA-MB-231 breast", "category": "inactive"}
{"compound": "COc1ccccc1NC(=O)c1sc2nc3c(cc2c1N)C(=O)CCC3", "subject-of-test": "MDA-MB-231 breast", "category": "inactive"}
{"compound": "Cc1cc2c(cc1C)[n+](Cc1ccc3ccccc3n1)cn2Cc1ccc2ccccc2n1", "subject-of-test": "MDA-MB-231 breast", "category": "active"}
{"compound": "NS(=O)(=O)c1ccc(-n2ncc3c(NC4CCCCC4)ncnc32)cc1", "subject-of-test": "MDA-MB-231 breast", "category": "inactive"}
{"compound": "O=C1NCCc2c1noc2-c1ccccc1", "subject-of-test": "MDA-MB-231 breast", "category": "inactive"}
{"compound": "CCSCC1CC(O)(c2ccccc2)C(c2ccccc2)C(c2ccc(Cl)cc2)O1 (stereo not given)", "subject-of-test": "MDA-MB-231 breast", "category": "active"}
{"compound": "CCOC(CNCc1cc(C)c2[nH]c3ccccc3c2c1C)OCC", "subject-of-test": "MDA-MB-231 breast", "category": "inactive"}
{"compound": "Cc1cc(C)c(C(=O)c2cccs2)c(C)c1", "subject-of-test": "MDA-MB-231 breast", "category": "inactive"}
{"compound": "C(=C1c2ccccc2-c2ccccc21)c1ccccn1", "subject-of-test": "MDA-MB-231 breast", "category": "inactive"}
{"compound": "CCCCNCCCN(CCCC)CCCNCCCC", "subject-of-test": "MDA-MB-231 breast", "category": "inactive"}
{"compound": "CCOC(=O)CCN(c1c(Cl)ssc1=O)C(C)C", "subject-of-test": "MDA-MB-231 breast", "category": "inactive"}
{"compound": "O=C(/C=C/c1cccc(O)c1)c1cccc(-n2cc(-c3ccccc3)[nH]c2=O)c1", "subject-of-test": "MDA-MB-231 breast", "category": "active"}
{"compound": "BrC1CC(Br)c2c1c1c(c3c2C(Br)CC3Br)C(Br)CC1Br (stereo not given)", "subject-of-test": "MDA-MB-231 breast", "category": "inactive"}
{"compound": "COc1ccc(CNC(=O)c2c(C)n([O-])c3cc(F)c(F)cc3[n+]2=O)cc1", "subject-of-test": "MDA-MB-231 breast", "category": "inactive"}
{"compound": "NS(=O)(=O)c1ccc(-n2ncc3c(SCc4ccccc4)ncnc32)cc1", "subject-of-test": "MDA-MB-231 breast", "category": "inactive"}
{"compound": "CCCCCCCCCCOC(C)=O", "subject-of-test": "MDA-MB-231 breast", "category": "inactive"}
{"compound": "CN(C)CCCN=c1cc2c(=O)n(CCCN(C)C)c(=O)c3c(NCCCN(C)C)cc4c(O)n(CCCN(C)C)c(=O)c1c4c3-2", "subject-of-test": "MDA-MB-231 breast", "category": "active"}
{"compound": "COc1cc(-c2nc3sc4c(c3c(=O)[nH]2)CCCCCC4)cc(OC)c1OC", "subject-of-test": "MDA-MB-231 breast", "category": "active"}
{"compound": "COC(=O)[C@H](CCCCNC(=O)OCc1ccccc1)NC(=O)[C@@H](NC(=O)Nc1cc(C(F)(F)F)cc(C(F)(F)F)c1)C(C)C", "subject-of-test": "MDA-MB-231 breast", "category": "active"}
{"compound": "Cc1cc(=O)[nH]c(/C(=N/Nc2ccccc2)C(=O)c2ccc(Cl)cc2)n1", "subject-of-test": "MDA-MB-231 breast", "category": "inactive"}
{"compound": "COc1cnc2c(c1)C(=O)c1c-2n(CCCN2CCC(O)CC2)c(=O)c2cc(F)ccc12", "subject-of-test": "MDA-MB-231 breast", "category": "inactive"}
{"compound": "O=C(O)CCNS(=O)(=O)c1ccc(-c2ccccc2)cc1", "subject-of-test": "MDA-MB-231 breast", "category": "inactive"}
{"compound": "FC(F)(F)c1ccc(-c2cnc(-c3nn[nH]n3)nc2NC2CCCCCC2)cc1", "subject-of-test": "MDA-MB-231 breast", "category": "inactive"}
